Source: ChEMBL document CHEMBL4507319

biological target: Serine/threonine-protein kinase 24 (Homo sapiens, UniProt Q9Y6E0)
Sequence (Q9Y6E0 whole entry): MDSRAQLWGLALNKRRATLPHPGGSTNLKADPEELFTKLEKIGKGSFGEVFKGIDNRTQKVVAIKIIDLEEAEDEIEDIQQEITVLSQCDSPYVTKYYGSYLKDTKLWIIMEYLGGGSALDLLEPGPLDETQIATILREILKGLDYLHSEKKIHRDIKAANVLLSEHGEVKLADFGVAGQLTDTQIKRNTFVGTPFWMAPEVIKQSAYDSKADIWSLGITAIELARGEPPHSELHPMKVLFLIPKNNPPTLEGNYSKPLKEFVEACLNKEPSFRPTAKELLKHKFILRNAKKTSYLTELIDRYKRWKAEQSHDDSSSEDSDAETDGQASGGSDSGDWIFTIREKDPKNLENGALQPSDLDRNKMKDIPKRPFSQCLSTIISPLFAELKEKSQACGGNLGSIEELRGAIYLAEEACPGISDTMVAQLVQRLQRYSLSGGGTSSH
pIC50: −log10 of the molar value.
Reported endpoint: pIC50

>  <Smiles record>
CCc1ccccc1C(=O)Nc1n[nH]c2c(C)c(F)c(C3C(C#N)=C(C)N(C)C(C)=C3C#N)cc12

>  <Value>
7.03

$$$$

###

biological target: Ribosomal protein S6 kinase alpha-5 (Homo sapiens, UniProt O75582)
Sequence (O75582 whole entry): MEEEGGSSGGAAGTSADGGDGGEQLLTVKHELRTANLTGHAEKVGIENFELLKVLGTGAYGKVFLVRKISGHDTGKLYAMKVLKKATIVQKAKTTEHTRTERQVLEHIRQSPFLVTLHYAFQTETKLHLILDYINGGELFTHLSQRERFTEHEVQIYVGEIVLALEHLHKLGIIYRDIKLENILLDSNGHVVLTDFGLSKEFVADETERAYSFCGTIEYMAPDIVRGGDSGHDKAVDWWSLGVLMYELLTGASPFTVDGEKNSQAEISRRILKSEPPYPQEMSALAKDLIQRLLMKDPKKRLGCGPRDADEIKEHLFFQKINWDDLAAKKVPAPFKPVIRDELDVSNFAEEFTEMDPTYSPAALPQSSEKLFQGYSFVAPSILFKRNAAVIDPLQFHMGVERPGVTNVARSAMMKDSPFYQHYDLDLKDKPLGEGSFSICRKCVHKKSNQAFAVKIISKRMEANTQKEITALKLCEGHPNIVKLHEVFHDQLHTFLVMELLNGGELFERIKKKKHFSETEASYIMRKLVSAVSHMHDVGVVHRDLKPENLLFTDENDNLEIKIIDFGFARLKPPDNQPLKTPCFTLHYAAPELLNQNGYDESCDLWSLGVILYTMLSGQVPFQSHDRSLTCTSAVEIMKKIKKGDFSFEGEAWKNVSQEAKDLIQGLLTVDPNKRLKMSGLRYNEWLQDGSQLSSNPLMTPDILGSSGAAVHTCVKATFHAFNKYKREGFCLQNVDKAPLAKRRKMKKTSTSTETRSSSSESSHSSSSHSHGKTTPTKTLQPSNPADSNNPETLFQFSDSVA

>  <Compound>
CCc1ccccc1C(=O)Nc1n[nH]c2c(C)c(F)c(C3C(C#N)=C(C)N(C)C(C)=C3C#N)cc12 [BAY-3827]

>  <Result unit>
µM

>  <IC50>
0.043

$$$$

###

target: 5'-AMP-activated protein kinase catalytic subunit alpha-1 (Homo sapiens); assay: Cellular mechanistic pACC assay using IMR-32 neuroblastoma cells; type: cell-based

>  <Compound>
CCc1ccccc1C(=O)Nc1n[nH]c2c(C)c(F)c(C3C(C#N)=C(C)N(C)C(C)=C3C#N)cc12 [BAY-3827]

>  <IC50, µM>
0.15

$$$$

###

biological target: 5'-AMP-activated protein kinase catalytic subunit alpha-1 (Homo sapiens, UniProt Q13131); experiment: Cellular mechanistic pACC assay using Colo-320 cells; format: cell-based
Sequence (Q13131 whole entry): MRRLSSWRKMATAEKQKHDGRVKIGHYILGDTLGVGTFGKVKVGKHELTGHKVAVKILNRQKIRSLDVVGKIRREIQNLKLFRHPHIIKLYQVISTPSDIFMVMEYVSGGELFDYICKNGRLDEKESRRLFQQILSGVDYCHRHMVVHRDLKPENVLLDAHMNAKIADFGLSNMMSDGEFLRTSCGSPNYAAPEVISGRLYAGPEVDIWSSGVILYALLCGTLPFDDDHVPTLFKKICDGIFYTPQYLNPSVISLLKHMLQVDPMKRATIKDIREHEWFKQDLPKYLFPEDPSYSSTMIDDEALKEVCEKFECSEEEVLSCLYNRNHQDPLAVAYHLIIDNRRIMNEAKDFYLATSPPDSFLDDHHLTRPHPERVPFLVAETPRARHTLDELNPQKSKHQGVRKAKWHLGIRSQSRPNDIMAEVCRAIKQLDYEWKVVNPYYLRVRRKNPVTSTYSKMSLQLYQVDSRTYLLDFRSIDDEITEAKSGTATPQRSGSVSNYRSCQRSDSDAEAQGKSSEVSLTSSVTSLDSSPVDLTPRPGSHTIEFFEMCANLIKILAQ
# IC50 per record follows

>  <Smiles record>
CCc1ccccc1C(=O)Nc1n[nH]c2c(C)c(F)c(C3C(C#N)=C(C)N(C)C(C)=C3C#N)cc12

>  <IC50>
390 nM

$$$$
>  <Smiles record>
CC1=C(C#N)C(c2ccc3c(c2)c(NC(=O)c2ccccc2C)nn3C)C(C#N)=C(C)N1

>  <IC50>
> 30000 nM (not active)

$$$$

###

molecular target: Sigma intracellular receptor 2 (Homo sapiens, UniProt Q5BJF2); assay: GPCRScan assay: inhibition of Sigma 2
Sequence (Q5BJF2 whole entry): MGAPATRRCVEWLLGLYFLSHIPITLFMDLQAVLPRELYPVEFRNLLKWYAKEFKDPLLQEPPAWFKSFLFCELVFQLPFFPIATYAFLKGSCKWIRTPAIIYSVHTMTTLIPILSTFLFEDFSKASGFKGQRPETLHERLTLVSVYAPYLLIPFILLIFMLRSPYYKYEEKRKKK
pKi: −log10 of the molar value.
Reported endpoint: pKi

>  <Molecule>
CC1=C(C#N)C(c2ccc3c(c2)c(NC(=O)c2ccccc2C)nn3C)C(C#N)=C(C)N1 [BAY-974]

>  <Measurement target>
Sigma intracellular receptor 2 (Homo sapiens, UniProt Q5BJF2)

>  <Value>
5.35

$$$$
>  <Molecule>
CCc1ccccc1C(=O)Nc1n[nH]c2c(C)c(F)c(C3C(C#N)=C(C)N(C)C(C)=C3C#N)cc12 [BAY-3827]

>  <Measurement target>
Sigma intracellular receptor 2 (Homo sapiens, UniProt Q5BJF2)

>  <Value>
5.55

$$$$

###

biological target: Ribosomal protein S6 kinase alpha-1 (Homo sapiens, UniProt Q15418)
Sequence (Q15418 whole entry): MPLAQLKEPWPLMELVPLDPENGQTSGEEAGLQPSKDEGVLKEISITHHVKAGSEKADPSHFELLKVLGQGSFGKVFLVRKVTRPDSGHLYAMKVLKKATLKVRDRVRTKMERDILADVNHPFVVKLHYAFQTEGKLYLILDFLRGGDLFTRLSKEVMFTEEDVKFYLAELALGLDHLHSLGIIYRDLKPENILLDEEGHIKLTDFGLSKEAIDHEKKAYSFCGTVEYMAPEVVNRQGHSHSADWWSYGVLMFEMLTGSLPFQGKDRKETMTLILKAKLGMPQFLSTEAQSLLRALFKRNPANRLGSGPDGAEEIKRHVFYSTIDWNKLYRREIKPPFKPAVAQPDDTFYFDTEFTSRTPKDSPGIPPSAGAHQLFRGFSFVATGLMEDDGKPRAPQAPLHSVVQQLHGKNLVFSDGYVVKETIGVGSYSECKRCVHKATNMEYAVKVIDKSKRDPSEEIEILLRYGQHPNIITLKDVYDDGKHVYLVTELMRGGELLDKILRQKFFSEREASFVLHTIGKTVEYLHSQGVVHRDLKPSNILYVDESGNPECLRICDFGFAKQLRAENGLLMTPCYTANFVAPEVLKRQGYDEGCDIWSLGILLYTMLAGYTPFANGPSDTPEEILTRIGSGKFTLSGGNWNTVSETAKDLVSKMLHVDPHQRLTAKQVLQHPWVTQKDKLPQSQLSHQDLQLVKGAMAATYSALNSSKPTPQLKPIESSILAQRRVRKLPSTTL
pIC50: −log10 of the molar value.

>  <Smiles record>
CCc1ccccc1C(=O)Nc1n[nH]c2c(C)c(F)c(C3C(C#N)=C(C)N(C)C(C)=C3C#N)cc12

>  <pIC50>
8.05

$$$$

###

target: Ribosomal protein S6 kinase alpha-2 (Homo sapiens)
Sequence (Q15349 whole entry): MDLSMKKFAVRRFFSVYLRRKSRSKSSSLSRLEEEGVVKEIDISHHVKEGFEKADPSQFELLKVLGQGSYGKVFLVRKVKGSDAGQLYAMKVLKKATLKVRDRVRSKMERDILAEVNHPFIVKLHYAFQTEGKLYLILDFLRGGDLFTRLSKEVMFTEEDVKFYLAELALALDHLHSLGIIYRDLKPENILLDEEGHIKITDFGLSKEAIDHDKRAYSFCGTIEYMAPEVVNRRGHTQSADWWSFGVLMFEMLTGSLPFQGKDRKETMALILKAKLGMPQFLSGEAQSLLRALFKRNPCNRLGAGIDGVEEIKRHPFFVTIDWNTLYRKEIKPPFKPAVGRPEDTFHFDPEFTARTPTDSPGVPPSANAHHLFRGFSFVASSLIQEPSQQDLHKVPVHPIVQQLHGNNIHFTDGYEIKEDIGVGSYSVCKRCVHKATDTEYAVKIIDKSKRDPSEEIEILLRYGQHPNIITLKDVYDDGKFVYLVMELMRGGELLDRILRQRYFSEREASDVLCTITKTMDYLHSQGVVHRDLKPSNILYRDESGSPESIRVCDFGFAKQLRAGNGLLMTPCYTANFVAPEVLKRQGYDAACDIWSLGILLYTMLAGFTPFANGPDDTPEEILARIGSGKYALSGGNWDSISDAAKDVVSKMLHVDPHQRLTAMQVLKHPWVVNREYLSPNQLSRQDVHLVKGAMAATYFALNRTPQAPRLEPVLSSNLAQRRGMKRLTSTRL
pIC50: −log10 of the molar value.

>  <Compound>
CCc1ccccc1C(=O)Nc1n[nH]c2c(C)c(F)c(C3C(C#N)=C(C)N(C)C(C)=C3C#N)cc12 [BAY-3827]

>  <pIC50>
7.62

$$$$

###

molecular target: 5'-AMP-activated protein kinase catalytic subunit alpha-2 (Homo sapiens, UniProt P54646)
Sequence (P54646 whole entry): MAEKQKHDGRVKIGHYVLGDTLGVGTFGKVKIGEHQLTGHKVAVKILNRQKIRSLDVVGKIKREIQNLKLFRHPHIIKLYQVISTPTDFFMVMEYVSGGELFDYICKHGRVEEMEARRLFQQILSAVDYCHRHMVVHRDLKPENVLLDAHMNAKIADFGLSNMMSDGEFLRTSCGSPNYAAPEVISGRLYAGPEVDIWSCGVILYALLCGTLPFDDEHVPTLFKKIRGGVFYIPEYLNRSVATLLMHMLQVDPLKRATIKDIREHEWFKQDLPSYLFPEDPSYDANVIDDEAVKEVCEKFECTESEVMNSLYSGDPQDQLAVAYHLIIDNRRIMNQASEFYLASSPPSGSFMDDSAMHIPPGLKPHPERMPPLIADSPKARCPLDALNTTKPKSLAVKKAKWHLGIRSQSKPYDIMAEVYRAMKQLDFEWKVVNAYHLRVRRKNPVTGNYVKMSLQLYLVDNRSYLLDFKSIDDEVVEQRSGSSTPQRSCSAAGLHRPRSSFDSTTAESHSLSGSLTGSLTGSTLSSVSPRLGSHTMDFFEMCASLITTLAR
pIC50: −log10 of the molar value.
Reported endpoint: pIC50

>  <Smiles record>
CCc1ccccc1C(=O)Nc1n[nH]c2c(C)c(F)c(C3C(C#N)=C(C)N(C)C(C)=C3C#N)cc12

>  <Value>
8.15

$$$$
